For each of the binders below, state its koff.
system.tested: T1, recombinant human PD-1 Fc chimera (human, UniProt Q15116 25-167)
T1 construct: Bought protein; also called human PD-1-huFc; huPD-1-Fc; not shown: human Fc
experiment.summary: SPR Biacore T200, PD-1-huFc amine-coupled, single cycle kinetics
Give the quantity in s⁻¹, number only.

Bench note: what koff did Humabody® 1.41 (VHH, human VH single domain antibody) VHH: QVQLVESGGGLVKPGGSLRLSCAASGFTFSDNSMTWMRQAPGKGLEWVSYISSGGGVIFYADSVKGRFTISRDNAKNSLYLQMNSLRADDTAVYYCAREAPLRLGESPHDAFDIWGQGTMVTVSS show?
2.96e-05

Bench note: what koff did Humabody® 1.51 (VHH, human VH single domain antibody) VHH: QVQLVESGGGLVKPGGSLRLSCAASGFTFSDSSMTWMRQAPGKGLEWVSYISSGGAVKFYTDSVKGRFTISRDNAKNSLYLQMNSLRADDTAVYYCAREAPLRLGESPHDAFDIWGQGTMVTVSS show?
5.98e-05

Bench note: what koff did Humabody® 1.55 (VHH, human VH single domain antibody) VHH: QVQLVESGGGLVKPGGSLRLSCAASGFTFSDNSMTWMRQAPGKGLEWVSYISSGGGVKFYADSVKGRFTISRDNAKNSLYLQMNSLRADDTAVYYCAREAPLRLGESPHDAFDISGQGTMVTVSS show?
1.95e-05

Bench note: what koff did Humabody® 1.50 (VHH, human VH single domain antibody) VHH: QVQLVESGGGLVKPGGSLRLSCAASGFTFSDNSMTWMRQAPGKGLEWVSYISSGGTIKFYADSVKGRFTISRDNAKNSLYLQMNSLRADDTAVYYCAREAPLRLGESPHDAFDIWGQGTMVTVSS show?
2.34e-05
